# Tested on: MDA-MB-435 melanoma
# protocol: NCI-60 one-dose screen, 48 h (100 = growth as untreated, 0 = no growth, -100 = all killed)
# applied_conditions: 10 µM unless noted
Compounds without any hit were thinned out: in the full panel of roughly 83,000, 20% have a hit.
value_type: growth (%)
Only the number, expressed in %, is required.

Determine its reported growth: `COc1c(-c2cc(-c3ccc(C)o3)[nH]c(=O)n2)c(O)cc2occc12`
-38.6

Indicate the recorded growth value for this compound: `CCCCn1c(-c2ccc(F)cc2)nc2cc(OC)c(OC)cc2c1=O`
101

Tell me its growth given COc1cc(C2CC(c3cccc(Nc4ccnc5cc(Cl)ccc45)c3)=NN2c2ccc(Cl)cc2)cc(OC)c1OC (centres undefined) as the entry.
8.15

Give reported growth value for `CCN(C(=O)Nc1cccc2ccccc12)c1ccccc1`
105

// fetch growth given entry `O=C(CS)OCC(COC(=O)CS)(COC(=O)CS)COC(=O)CS`
78.8

Answer with the recorded growth for the compound listed here: O=C(C(Br)C(Br)c1ccccc1)C(Br)C(Br)c1ccccc1 (centres undefined)
-37.5

Continuing:
Output measured growth for this item: `CCN(CC)c1ccc2nc3c4ccccc4c(=O)cc-3n(-c3ccccc3)c2c1`
-36.3

Please give the documented growth of `O=C(NCCNC(=O)c1cc(S(=O)(=O)NCCc2ccccc2)c(O)c(O)c1O)c1cc(S(=O)(=O)NCCc2ccccc2)c(O)c(O)c1O`
35.2

Identify the reported growth for the following entry. `Cc1ccc(N2C3c4ccccc4N(S(=O)(=O)c4ccc(C)cc4)C2c2ccccc2N3S(=O)(=O)c2ccc(C)cc2)cc1`
99.9

* * *

The entries below come with measured growth values attached.
# Test system: DU-145 prostate
# protocol: NCI-60 one-dose screen, 48 h (100 = growth as untreated, 0 = no growth, -100 = all killed)
# applied_conditions: 10 µM unless noted
This is part of a sample that, as a whole, favours compounds with a hit. Of some 83,000 tested, about 20% had one in any assay.
Note: unit % is implicit; provide only the numeric part.

Some solved cases for reference:
Please give measured growth of the following entry: `COc1ccc(-c2[nH]nc(N)c2-c2cc(OC)c(OC)c(OC)c2)cc1`
2.62

Let me know recorded growth for `CCCCCc1c(C)[nH]c(/C=C2\N=C(c3ccc[nH]3)C=C2CC)c1C` , thanks.
-94.8

Continuing:
For the compound `O=C(Cc1ccc(Nc2ccnc(C(F)(F)F)c2)cc1)N/N=C/c1ccccc1O` , report growth.
39.3

* * *

# System: SF-268 CNS
# protocol: NCI-60 one-dose screen, 48 h
# applied_conditions: 10 µM unless noted
This is part of a sample that, as a whole, favours compounds with a hit. Of some 83,000 tested, about 20% had one in any assay. Activity calls are given as the source filed them. The calls were made as follows: active = growth percent below 10; inactive = the rest.
Output constraint: value belongs to active, inactive

Examples with answers:
Which outcome did this test record for the compound `CC[C@H](Nc1nc(N)nc(N)c1Cl)c1nc2cccc(NCc3ccc(C(=O)NO)cc3)c2c(=O)n1-c1ccccc1` ?
active

Record lookup: outcome of this test for `COc1cc(/C=C/c2ccc3c(Br)cc(Br)c(O)c3n2)ccc1O` ?
inactive

Please let me know the test result on file for `Cc1cc(-c2nnc(/C=C/c3ccc4c(c3)OCO4)o2)n[nH]1` .
inactive

Further cases:
What was the test verdict on `O=C(C=P(c1ccccc1)(c1ccccc1)c1ccccc1)CCl` ?
active

Hey, what did the test say about CCCOC(=O)C1c2cc3c(cc2CC(C)C1C(=O)OCCC)OCO3 (configuration not stated) ?
inactive

Recorded test outcome, item `CCN(CC)CCCNc1cccc2c(C)cc(OC)nc12`
inactive

Please indicate how the test categorized `CCCCCNCCCCCNc1cc(OC)cc2cccnc12` .
inactive

// return assay outcome for `Clc1ccc(Nc2ncnc3c2sc2ncccc23)c(Cl)c1`
inactive

Which outcome did this test record for the compound `Nc1nc(N)c2cc(CNc3ccc(Cl)c(Cl)c3)ccc2n1` ?
inactive

State the result this test recorded for COC(=O)C(CCC(=O)CCl)N1C(=O)c2ccccc2C1=O (configuration not stated) .
inactive

* * *

# Tested on: SF-295 CNS
# protocol: NCI-60 one-dose screen, 48 h
# applied_conditions: 10 µM unless noted
# Protocol: Cells are grown in 96 well plates and exposed to the test compound for 48 hours. Compounds are tested at a single concentration, which is 10^-5 M for most compounds. The reported endpoint is percent growth (GI% or GIPRCNT), where numbers from 0 - 100% represent growth inhibition, and numbers from -100% - 0 represent cell death. For example, a value of 40 represents 60% growth inhibition. A value of 0 means no net growth occurred over the course of the experiment. […]
This is part of a sample that, as a whole, favours compounds with a hit. Of some 83,000 tested, about 20% had one in any assay. Calls of active or inactive are those of the source. Rule for the calls: active = growth percent below 10; inactive = the rest.
Output constraint: value belongs to 1 = active, 0 = inactive

Solved entries (count: 5):
For this compound, state the assay outcome: `COc1ccc2cc(-c3nc(C)c(C(C)=O)c(-c4ccc(C)cc4)n3)ccc2c1`
0

Entry `CCN(CC)C(Cl)=Nc1ccc(Cl)cc1` : call = ?
0

Test call for this compound, please: `COc1ccc(Br)c2ccccc12`
0

State the result this test recorded for `Nc1cc2nc3ccccc3oc-2cc1=O` .
1

Dear all, I need the recorded test outcome for `CCCCN(CCCC)CCCN=c1nc2c(c(N)n1-c1ccccc1)c(=S)n(-c1ccccc1)c(=S)n2-c1ccccc1` , thank you.
1

New cases:
Name the outcome recorded for `O=C(Nc1ccc2ncnc(Nc3ccc(F)c(Cl)c3)c2c1)c1cccs1` in the assay.
0

Given `COc1c(B(O)O)cccc1-c1nc2ccc3[nH]ncc3c2c2c1CCCC2` , state the outcome it received in this test.
0

For O=C1OCC2=C1C(c1ccc(Cl)c(Cl)c1)c1cc3c(cc1N2CCO)CCC3 (centres undefined) , which call appears in the assay record?
1

How did this test come out for `O=C(OCc1ccc2c(Br)cc(Br)c(O)c2n1)c1cc2ccccc2[nH]1` ?
0

Tell me the recorded outcome of this test for `C[C@]12CCc3nc(Nc4ccc(O)cc4)sc3C1=CC[C@@H]1[C@@H]2CC[C@]2(C)/C(=N/NC(N)=S)CC[C@@H]12` .
1

Could you kindly confirm the outcome this assay logged for CC1(C)C(N(O)C(=O)Nc2ccc(Cl)cc2)N(c2ccc(Cl)cc2)C(=O)N1CC(=O)N/N=C/C=C/c1ccc([N+](=O)[O-])o1 (centres undefined) ?
0

What is the recorded call for this compound in the test? CCOC(=O)C1=C(C)NC(SCc2nnc(-c3ccc(Cl)cc3)o2)=NC1c1ccc(Cl)cc1 (centres undefined)
0

What call does the record list for C=C1NC(=O)C(C(C)CC)NC(=O)C2CSCC(NC(=O)CCC(=O)O)C(=O)NC(Cc3ccccc3)C(=O)NC(C)C(=O)NC(CC(C)CC)C(=O)NC(C(=O)NC(Cc3ccccc3)C(=O)N3CCCC3C(=O)N2)C(C)OC(=O)C(CO)NC(=O)C(C(O)COC)N(C)C(=O)C(C(C)C)NC(=O)C(CC(C)CC)NC1=O (centres undefined) ?
0

// outcome(item) with item = Nc1nc2c(c3ncccc13)C(c1ccccc1)Cc1ncccc1-2 (centres undefined)
0

Entry `Cc1n(Cc2ccc3ccccc3n2)cc[n+]1Cc1ccc2ccccc2n1` : call = ?
0

Hi, sorry to bother you, what did the test record for CC1(C)C2CCC(O)(C(=O)O)C1C2 (centres undefined) ?
0

Record request — test call for Nc1nc(N)c2c(n1)NC(c1sc(Cl)nc1Cl)CC(c1ccccc1)=N2 (centres undefined)
0

Recorded test call requested for `Cc1cccc(C(=O)O)n1`
0

Name the outcome recorded for CCOC(=O)c1ccccc1SC(C[N+](=O)[O-])c1ccccc1 (centres undefined) in the assay.
0

* * *

# Test system: HOP-62 NSCLC
# protocol: NCI-60 one-dose screen, 48 h
# applied_conditions: 10 µM unless noted
About 83,000 compounds went through this panel and 20% of them were active in at least one assay; those are over-represented in the sample as a whole. The source made the active and inactive calls. How the source made its calls: active means growth percent below 10; inactive means the rest.
Please answer using one outcome listed in active, inactive

For `O=C(CS)OCC(COC(=O)CS)(COC(=O)CS)COC(=O)CS` , which call appears in the assay record?
inactive

What is the recorded call for this compound in the test? `CC(=O)c1ccc(Nc2nc(Cl)nc(Oc3c(Cl)cccc3Cl)n2)cc1`
inactive

Test call, this compound: `COc1cc(/C=C/c2ccc3c(Br)cc(Br)c(O)c3n2)ccc1O`
inactive

What did this assay record as the result for CCN(CC)CCCC(C)Nc1cnc(C(=O)Nc2cc(C)cc3cccnc23)cn1 (stereo unspecified) ?
inactive

Record lookup: outcome of this test for CC(C)(C)NC(=O)C(OC(=O)C1CCc2cc(F)ccc2O1)c1ccccc1Cl (stereo unspecified) ?
inactive

Others:
# fetch the recorded call for `COc1cc2c(cc1OC)C(=O)OC2` here
inactive

I'd appreciate the recorded outcome for `COc1cc2nccc(Oc3ccc(NC(=O)C4(C(=O)Nc5c(F)cc(F)cc5F)CC4)cc3)c2cc1Oc1ccc(N)cn1` from this test.
inactive

Check the results log: what was the call for `COc1ccc(/C=C/C(=O)c2ccc(NC(=O)CSc3nnc(-c4ccc(OC)cc4)n3-c3ccccc3)cc2)cc1` ?
inactive

Record request — test call for O=C1OCC2=C1C(c1ccc(Cl)c(Cl)c1)c1cc3c(cc1N2CCO)CCC3 (stereo unspecified)
inactive

What was the test verdict on `COC(=O)/C=C/c1cc(OC(C)=O)c2c(c1)[C@@H](C(=O)OC)[C@H](c1ccc(OC(C)=O)c(OC(C)=O)c1)O2` ?
inactive

What was the test verdict on `O=C(C(=O)c1cccnc1)c1cccnc1` ?
inactive

Call for entry `O=C(/C=C/c1cc([N+](=O)[O-])ccc1Cl)c1ccccc1` :
inactive

Status in this test for `CCOC(=O)NNc1cccc(Cl)c1` ?
inactive

Which outcome was assigned to `Cc1ccc(N2C3c4ccccc4N(S(=O)(=O)c4ccc(C)cc4)C2c2ccccc2N3S(=O)(=O)c2ccc(C)cc2)cc1` in this test?
inactive

Call for entry `CCCc1n(Cc2ccc3ccccc3c2)c2ccccc2[n+]1Cc1ccc2ccccc2c1` :
active

How was Nc1nc2c(c3ncccc13)C(c1ccccc1)Cc1ncccc1-2 (stereo unspecified) classified in this test?
inactive

Name the outcome recorded for `COc1ccc(CCN2COc3c([C@@H](C)CCC=C(C)C)ccc(C)c3C2)cc1OC` in the assay.
inactive

Hey, what did the test say about `F` ?
inactive

Dear all, I need the recorded test outcome for Nc1nc(N)c2c(n1)NC(c1sc(Cl)nc1Cl)CC(c1ccccc1)=N2 (stereo unspecified) , thank you.
inactive

Lab log entry: `COc1ccc2[nH]c(C(=O)OCc3ccc4cccc(O)c4n3)cc2c1` — outcome as called in the assay?
inactive

Which outcome was assigned to `CCOc1cccc(/C=N/NC(=O)c2ccc(Nc3ccnc(C(F)(F)F)c3)cc2)c1O` in this test?
active
